The origin of these recorded values is PubChem BioAssay (NCI).

# Test system: SR leukemia
# protocol_details: NCI tumour cell line growth inhibition, 48 h
value_type: TGI

Below are worked cases with known answers.
# compound, TGI
data = [
    ("NC(CCCCCCCCCCP(=O)(O)O)C(=O)O (stereo unspecified)", "> 100 µM"),
    ("S=c1nc2sc3c(c2c(Nc2ccc(Cl)cc2)[nH]1)CCCC3", "> 100 µM"),
    ("CC(C)=C1C(=O)C[C@]2(C)C[C@H]3O[C@]3(C)CC[C@@H]3O[C@@]3(C)CC[C@@H]12", "> 50 µM"),
    ("N#Cc1cccc2c1Sc1ccccc1N2", "> 100 µM"),
    ("CC(C)(C)c1cc(C(=O)/C=C/c2c(Cl)cccc2Cl)cc(C(C)(C)C)c1O", "> 37 µM"),
]

Lab note: next compound to report on.
Recorded TGI (compound "CC[C@@]12CCCN3CC[C@]4(c5cccc(OC)c5N(C(C)=O)[C@@H]4CC1)[C@H]32" ): 55.9 µM
